molecular target: canine CD3 on canine T cells (canine PBMC) (canine, UniProt P27597 22-202); assay: cell-based or functional assay
Sequence (P27597 22-202 limits assumed, chain 1 of 3): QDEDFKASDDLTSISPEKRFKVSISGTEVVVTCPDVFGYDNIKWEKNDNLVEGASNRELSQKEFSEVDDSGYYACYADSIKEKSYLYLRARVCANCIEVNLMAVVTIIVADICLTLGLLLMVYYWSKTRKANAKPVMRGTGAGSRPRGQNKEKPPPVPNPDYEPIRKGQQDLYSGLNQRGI
Sequence (chain, as listed by the source limits assumed, chain 2 of 3): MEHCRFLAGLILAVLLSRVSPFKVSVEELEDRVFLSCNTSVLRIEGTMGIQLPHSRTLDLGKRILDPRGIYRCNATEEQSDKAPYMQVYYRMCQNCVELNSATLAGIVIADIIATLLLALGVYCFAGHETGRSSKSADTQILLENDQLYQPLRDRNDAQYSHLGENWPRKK
Sequence (chain, as listed by the source limits assumed, chain 3 of 3): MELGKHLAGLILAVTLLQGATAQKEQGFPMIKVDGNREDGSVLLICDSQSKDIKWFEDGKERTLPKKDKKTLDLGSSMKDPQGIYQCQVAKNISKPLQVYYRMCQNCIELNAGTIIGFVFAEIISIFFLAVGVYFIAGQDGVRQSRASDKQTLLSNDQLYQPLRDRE
Assay Readout: IFNy Concentration pg/ml, Day 9, PB (pg/mL)
Give your result in pg/mL as a bare value.

PMX179 (monospecific anti-canine CD3, canine IgG-B effector function deficient Fc) (antibody, V domains shown) VH: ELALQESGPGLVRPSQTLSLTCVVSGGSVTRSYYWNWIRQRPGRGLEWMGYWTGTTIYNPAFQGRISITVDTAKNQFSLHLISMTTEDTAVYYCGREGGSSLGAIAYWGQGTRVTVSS VL: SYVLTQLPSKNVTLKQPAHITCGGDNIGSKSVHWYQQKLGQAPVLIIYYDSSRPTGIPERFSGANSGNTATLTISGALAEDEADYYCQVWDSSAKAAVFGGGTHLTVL = 2750
PMX159 (monospecific anti-canine CD3, canine IgG-B effector function deficient Fc) (antibody, V domains shown) VH: ELTLQESGPGLVKPSQTLSLTCVVSGGSVTRSYYWNWIRQRPGRGLEWMGYWTGSTIYNPTFQGRISITADTAKSQFSLQLRSMTTEDTAMYFCAREGGKSLGAFAYWGQGTLVTVSS VL: SYVLTQLPSKNVTLKQPAHITCGGDKIGSKNVHWYQQKLGQAPVMIIYYDSSRPTGIPERFSGANSGNTATLTISGALAEDEADYYCQVWDSSAKAAVFGGGTHLTVL = 3050

From here, focus on the item given below.
Lookup: Bench note: what IFNy Concentration pg/ml, Day 9, PB did PMX166 (monospecific anti-canine CD3, canine IgG-B effector function deficient Fc) (antibody, V domains shown) VH: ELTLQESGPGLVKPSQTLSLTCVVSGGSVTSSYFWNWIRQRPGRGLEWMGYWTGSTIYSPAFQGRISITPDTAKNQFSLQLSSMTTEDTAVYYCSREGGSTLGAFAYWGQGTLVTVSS VL: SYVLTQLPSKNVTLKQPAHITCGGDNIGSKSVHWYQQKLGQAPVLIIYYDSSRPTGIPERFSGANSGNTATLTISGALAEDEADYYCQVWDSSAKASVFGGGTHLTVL show?
Found: 2780
